Test system: Plasmodium falciparum
Assay: GSK_TCMDC: Inhibition of Plasmodium falciparum 3D7 in whole erythrocytes, using parasite LDH activity as an index of growth.
Type: functional, organism-based
Conditions: Plasmodium falciparum, 3D7
property: XC50 (nM)
Quick reminder: number only, in nM, skip the unit.

INPUT: // lookup XC50 for Cc1ccc(NC(=O)c2ccc(NCCCN3CC(C)CC(C)C3)c([N+](=O)[O-])c2)cc1F (stereo not given)
OUTPUT: 711

INPUT: Fill blank: measured XC50 of the molecule `O=C(Nc1cccc(OC2CCN(Cc3ccsc3)CC2)c1)c1ccc(C(F)(F)F)cc1` is ____.
OUTPUT: 765

INPUT: Please look up its XC50: COc1ccc(C2CC(c3cccs3)=NN2C(=O)COc2cccc3c2CCCC3O)cc1OC (stereo not given)
OUTPUT: 1150

INPUT: Returns the measured XC50 for the input molecule. Input: `O=C(NCCc1cccc(F)c1)c1ccc(N2CCN(c3ccncc3)CC2)cn1`
OUTPUT: 1020

INPUT: Tell me the measured XC50 of O=C(C=Cc1ccc(Cl)c(Cl)c1)NCCCCCN1CCCC(CCCNC(=O)C2CC2c2ccccc2)C1 (stereo not given) , please.
OUTPUT: 1130

INPUT: What measured XC50 goes with `Cc1cc(N2Cc3ccccc3C2)nc(Nc2cccc(C#N)c2)n1` ?
OUTPUT: 172

INPUT: Reported XC50, molecule `Clc1ccc2c(N3CCCNCC3)ccnc2c1` : ____
OUTPUT: 482

INPUT: Recorded XC50 for `CC(C)C[C@H](NC(=O)c1cc2ccccc2s1)C(=O)N[C@H]1CCN(Cc2ccc(I)c(OCCN3CCCC3)c2)C1` , please?
OUTPUT: 1350

INPUT: What value of XC50 has been recorded for this entry: `COCCN1CCC(CNCC(C)(C)c2nc(-c3ccc(Cl)c(O)c3)c(-c3ccncc3)[nH]2)CC1`
OUTPUT: 753

INPUT: What value of measured XC50 is listed for `CN(C)c1cc(NC(=O)Nc2ccc(SC(F)(F)F)cc2)c2ccccc2n1` ?
OUTPUT: 140

* * *

Test system: Plasmodium falciparum
Experiment: GSK_TCMDC: Inhibition of Plasmodium falciparum 3D7 in whole erythrocytes, using parasite LDH activity as an index of growth.
Assay type: functional, organism-based
Conditions: Plasmodium falciparum, 3D7
Mark each entry Y if its XC50 sits below 600 nM, and N for all others.

INPUT: For this molecule, is XC50 lower than 600 nM? `Nc1nc(O)c2cc(CN(C=O)c3ccc(C(=O)N[C@@H](CCC(=O)O)C(=O)O)cc3)ccc2n1`
OUTPUT: Y

INPUT: Determine whether this molecule shows XC50 lower than 600 nM (ties excluded): `O=C(Nc1cccnc1)c1cc(-c2cc(Cl)ccc2O)n[nH]1`
OUTPUT: N

INPUT: Dear colleague, could you confirm whether XC50 of `Cc1cccc2nc(-c3cccc(-c4ccc(NC(=O)CS(C)(=O)=O)cc4)c3)[nH]c12` falls below 600 nM? Thanks.
OUTPUT: N

INPUT: State whether 600 nM exceeds XC50 recorded for `O=C(C=Cc1ccc(F)cc1)N1CCN(S(=O)(=O)c2ccc(Cl)cc2)CC1` .
OUTPUT: N

INPUT: Is 600 nM strictly greater than the molecule's reported XC50? molecule: `CC[C@H]1CN2CC[C@H]1C[C@H]2[C@H](O)c1cc(-c2ccc(Cl)c(Cl)c2)nc2ccc(OC)cc12`
OUTPUT: Y
